System: LXFL 529
Test: NCI tumour cell line growth inhibition, 48 h
Activity calls are given as the source filed them. Rule as the data show it: active = GI50 up to about 1.1 µM and inactive = higher.
Metric Name: GI50

Sure, the documented GI50 for `O=S(=O)(N/N=C/c1ccc(Cl)c(Cl)c1)c1ccccc1` is 30.4 µM (inactive)

Sure, the documented GI50 for CC(=O)C1C(=O)C(=O)N(CCN2C(=O)C(=O)C(C(C)=O)C2=O)C1=O (stereo not drawn) is > 100 µM (inactive)

Sure, the documented GI50 for `N/N=c1/nc2n(c3ncccc13)C=CNN2` is > 100 µM (inactive)

---

Tested on: IGROV-1
Test: NCI tumour cell line growth inhibition, 48 h
The source made the active and inactive calls. Rule as the data show it: active = GI50 up to about 1.1 µM and inactive = higher.
Metric Name: GI50

Given the compound `O=C(OCc1ccccc1)N(CCCCN(CCCNC(=O)C(F)(F)F)C(=O)OCc1ccccc1)CCCNC(=O)C(F)(F)F` and test system IGROV-1, the measured GI50 is > 100 µM (inactive)

Given the compound `C/C(CC(O)(C(F)(F)F)C(F)(F)F)=N\NC(N)=O` and test system IGROV-1, the measured GI50 is > 10 µM (inactive)

Given the compound C=C1C(=O)C23C(O)C1CC[C@H]2C12CCCC(C)(COC(C)=O)[C@H]1[C@H](O)[C@]3(O)OC2 (some centres undefined) and test system IGROV-1, the measured GI50 is 2.08 µM (inactive)

Given the compound Nc1nc(O)c2ncn(C3OC(CO)C(O)C3O)c2n1 (centres undefined) and test system IGROV-1, the measured GI50 is > 77.4 µM (inactive)
